- assaySummary: Human HepG2 cell viability assay in 384 well format
- Format: toxicity, cell-based
- Parameters: dose 125 nL, time 70.5 hour; concentration not given beside the values
- conditionLabel: HepG2 cells, read-out: Inhibition
Reported cytotoxicity at 70.5 h by item:

- compound: "Cc1ccc(-c2n[nH]cc2CN(Cc2nccn2C)C(C)C)cc1C"
  units: "%"
  cytotoxicity at 70.5 h: -5.49
- compound: "Cc1ccc(C(=O)N2CC[C@@H]3[C@H]2CCC(=O)N3c2ccccc2)o1"
  units: "%"
  cytotoxicity at 70.5 h: -13.7
- compound: "CCN1CCC2(C=C(C(=O)NC3CC3)c3ccccc32)CC1"
  units: "%"
  cytotoxicity at 70.5 h: -3.64
- compound: "CCc1cc(N(C)Cc2[nH]nc3c2CCC3)nc(N2CCOCC2)n1"
  units: "%"
  cytotoxicity at 70.5 h: -15.5
- compound: "COc1ccc(C(C(=O)O)N2CCN(C3CCCC3)CC2)cc1C (stereo not drawn)"
  units: "%"
  cytotoxicity at 70.5 h: -1.67
- compound: "Cc1cnn(CC2CN(CC(=O)Nc3cc(C)on3)CCO2)c1 (stereo not drawn)"
  units: "%"
  cytotoxicity at 70.5 h: -5.06
- compound: "Cc1nc(CNC(=O)C(C)Oc2ccccc2F)no1 (stereo not drawn)"
  units: "%"
  cytotoxicity at 70.5 h: -5.02
- compound: "Cc1csc(CN2CCC[C@]3(C[C@H](OCC4CC4)CO3)C2)n1"
  units: "%"
  cytotoxicity at 70.5 h: 1.27
- compound: "CN(C)c1cc2c(nn1)CCN(C(=O)c1ccc(-n3cccn3)nc1)C2"
  units: "%"
  cytotoxicity at 70.5 h: -25.2
- compound: "COc1cccc(CN2CC(O)CN(C(=O)C3CCC3)CC2=O)c1OC (stereo not drawn)"
  units: "%"
  cytotoxicity at 70.5 h: -4.14
- compound: "Cc1ccc(S(=O)(=O)N2CCc3ccc(F)cc32)cc1C(=O)O"
  units: "%"
  cytotoxicity at 70.5 h: -6.54
- compound: "CN(c1ccc(C(=O)NCCN2CCOCC2)c(Cl)c1)S(C)(=O)=O"
  units: "%"
  cytotoxicity at 70.5 h: -1.41
- compound: "CS(=O)(=O)N1CCC(NC(=O)COc2ccc3ccccc3c2)CC1"
  units: "%"
  cytotoxicity at 70.5 h: -1.61

----------
- assaySummary: Human HepG2 cell viability assay in 384 well format
- Assay type: toxicity, cell-based
- Set-up: dose 125 nL, time 70.5 hour; concentration not given beside the values
- conditionLabel: HepG2 cells, read-out: Inhibition
Mark fulfilled for reported cytotoxicity at 70.5 h of -10% or greater; mark not fulfilled for anything smaller.

- compound: "O=C(O)c1cnc(N2CCCC2)nc1COc1ccc(F)cc1"
  className: "not fulfilled"
- compound: "CC(=O)N1CCCCC[C@@H]2[C@@H]1[C@H](c1cccc(F)c1)CN2C(C)=O"
  className: "not fulfilled"
- compound: "CCOc1ccc(Cl)cc1C(C(=O)O)N1CCCC1 (stereo not given)"
  className: "fulfilled"
- compound: "CN(C)C(=O)C1CCN(C2CCN(CC3CC3)CC2)CC1"
  className: "fulfilled"
- compound: "Cc1cc(C)n(-c2ccc(C(=O)NCc3cncn3CC(C)C)cc2)n1"
  className: "fulfilled"
